molecular target: Collagenase 3 (Homo sapiens, UniProt P45452); assay: In vitro inhibitory activity against matrix metalloprotease-13 (MMP-13)
Assign IC50 to each entry below.
The reply must contain the numeric value and, after it, the unit.

Inquiry: Item under review: COc1ccc(S(=O)(=O)N2CCN(C(=O)c3c(-c4ccccc4)noc3C)CC2C(=O)NO)cc1 (stereo unspecified) . Reported IC50?
Reply text: 27 nM

Inquiry: Item under review: COc1ccc(S(=O)(=O)N2CCN(C(=O)c3cccnc3)CC2C(=O)NO)cc1 (stereo unspecified) . Reported IC50?
Reply text: 57 nM

Inquiry: Item under review: COc1ccc(S(=O)(=O)N2CCN(C(=O)NCc3ccccc3)CC2C(=O)NO)cc1 (stereo unspecified) . Reported IC50?
Reply text: 2.4 nM

Inquiry: Item under review: COc1ccc(S(=O)(=O)N2CCN(C(=O)OCc3cccnc3)CC2C(=O)NO)cc1 (stereo unspecified) . Reported IC50?
Reply text: 1 nM

Inquiry: Item under review: CCCCCCN(C)C(=O)N1CCN(S(=O)(=O)c2ccc(Br)cc2)C(C(=O)NO)C1 (stereo unspecified) . Reported IC50?
Reply text: 4.5 nM

Inquiry: Item under review: COc1ccc(S(=O)(=O)N2CCN(C(=O)c3ccc(-c4ccccc4)cc3)CC2C(=O)NO)cc1 (stereo unspecified) . Reported IC50?
Reply text: 0.9 nM

Inquiry: Item under review: COc1ccc(S(=O)(=O)N2CCN(C(=O)c3snnc3C)CC2C(=O)NO)cc1 (stereo unspecified) . Reported IC50?
Reply text: 21 nM

Inquiry: Item under review: COc1ccc(S(=O)(=O)N2CCN(C(=O)N3CCCCCC3)CC2C(=O)NO)cc1 (stereo unspecified) . Reported IC50?
Reply text: 2.9 nM

Inquiry: Item under review: COc1ccc(S(=O)(=O)N2CCN(C(=O)OCc3ccccc3)CC2C(=O)NO)cc1 (stereo unspecified) . Reported IC50?
Reply text: 1.3 nM

Inquiry: Item under review: COc1ccc(S(=O)(=O)N2CCN(Cc3ccccc3)CC2C(=O)NO)cc1 (stereo unspecified) . Reported IC50?
Reply text: 8 nM

Inquiry: Item under review: CCOCCCOC(=O)N1CCN(S(=O)(=O)c2ccc(OC)cc2)C(C(=O)NO)C1 (stereo unspecified) . Reported IC50?
Reply text: 0.7 nM
